# PROCEDURE_DETAILS: Ratio of total drug concentration in brain to blood in Han-Wistar rat at 2 mg/kg, po
# Type: ADME, organism-based

{"columns": ["SMILES_REPR", "Kp"],
 "data": [
  ["CCOc1nc(Nc2ccc(C(=O)N3CCN4CCC[C@@H]4C3)cc2OC)nc2[nH]ccc12", 0.51]
]}

----------
# PROCEDURE_DETAILS: Unbound fraction in human serum
# Type: ADME, cell-free

{"columns": ["SMILES_REPR", "fraction unbound"],
 "data": [
  ["CCOc1nc(Nc2ccc(C(=O)N3CCOCC3)cc2OC)nc2[nH]ccc12", 0.059]
]}
